- assay remarks: Half-life after po dose of 5.46 mg/kg in rats
- Assay type: ADME, organism-based
- Set-up: dose 5.46 mg/kg, route oral
- run conditions: rat, in vivo
endpoint name: half-life (h)
# number only, unit h dropped from output

Record `CC(C)(C)OC(=O)c1ncn2c1CN(C(=O)N1CCCC1)c1cc(Cl)ccc1-2.CCCC(=O)O` , field half-life: 7.6

###

- tested target: GABA-A receptor; alpha-1/beta-2/gamma-2 (Homo sapiens) (UniProt P14867+P47870+P18507)
- assay remarks: In vitro GABA-mediated chloride current in A293 cells expressing GABA-A benzodiazepine receptor alpha-1-beta-2-gamma-2 subunits at 5 uM
- Type: functional, cell-based
- run conditions: HEK293
endpoint name: Change in Cl- current
// return just the number, without any unit appended

Record `CN1CCN(C(=O)N2Cc3c(C(=O)OC(C)(C)C)ncn3-c3ccc(Cl)cc32)CC1(C)C` , field Change in Cl- current: 1.1

###

- tested target: GABA-A receptor; anion channel
- assay remarks: Displacement of [3H]flunitrazepam from GABA-A benzodiazepine receptor of rat cortical membranes
Each entry below carries its recorded pKi.
When answering, recall that pKi equals minus log10 of the concentration in mol/L, and write that number alone.

{"compound": "CC1(C)CN(C(=O)N2Cc3c(C(=O)OC(C)(C)C)ncn3-c3ccc(Cl)cc32)CCN1", "pKi": 8.52}
{"compound": "C[C@@H]1CN(C(=O)N2Cc3c(C(=O)OC(C)(C)C)ncn3-c3ccc(F)cc32)C[C@H](C)N1C", "pKi": 8.57}
{"compound": "CN1C2CCC1CN(C(=O)N1Cc3c(C(=O)OC(C)(C)C)ncn3-c3ccc(Cl)cc31)C2", "pKi": 8.04}
{"compound": "CC(C)(C)OC(=O)c1ncn2c1CN(C(=O)N1CCCC1)c1cc(Cl)ccc1-2.CCCC(=O)O", "pKi": 8.59}
{"compound": "C[C@@H]1NCCN(C(=O)N2Cc3c(C(=O)OC(C)(C)C)ncn3-c3ccc(Cl)cc32)[C@H]1C", "pKi": 8.39}

Record CC1CN(C(=O)N2Cc3c(C(=O)OC(C)(C)C)ncn3-c3ccc(Cl)cc32)CC(C)N1 (configuration not stated) , field pKi: 8.63

Record `Cc1ccc2c(c1)N(C(=O)N1CCN[C@H](C)C1)Cc1c(C(=O)OC(C)(C)C)ncn1-2` , field pKi: 8.26

Record `C[C@@H]1CN(C(=O)N2Cc3c(C(=O)OC(C)(C)C)ncn3-c3ccc(C(F)(F)F)cc32)C[C@H](C)N1` , field pKi: 7.49

Record `C[C@@H]1CN(C(=O)N2Cc3c(C(=O)OC(C)(C)C)ncn3-c3ccc(Cl)cc32)C[C@@H](C)N1` , field pKi: 8.29

Record `C[C@@H]1CN(C(=O)N2Cc3c(C(=O)OC(C)(C)C)ncn3-c3cccc(Cl)c32)C[C@H](C)N1` , field pKi: 7.55

Record `C[C@@H]1CN(C(=O)N2Cc3c(C(=O)OC(C)(C)C)ncn3-c3cccc(Cl)c32)C[C@H](C)N1C` , field pKi: 7.25

Record `Cc1ccc2c(c1)N(C(=O)N1C[C@@H](C)N(C)[C@@H](C)C1)Cc1c(C(=O)OC(C)(C)C)ncn1-2` , field pKi: 8.02

Record `Cc1ccc2c(c1)N(C(=O)N1CCNCC1)Cc1c(C(=O)OC(C)(C)C)ncn1-2` , field pKi: 7.83

Record `C[C@@H]1CN(C(=O)N2c3cc(Cl)ccc3-n3cnc(C(=O)OC(C)(C)C)c3C2(C)C)C[C@H](C)N1` , field pKi: 7.70

Record `C[C@@H]1CN(C(=O)N2Cc3c(C(=O)OC(C)(C)C)ncn3-c3ccccc32)C[C@H](C)N1C` , field pKi: 8.18

Record CC1CN(C)CC(C)N1C(=O)N1Cc2c(C(=O)OC(C)(C)C)ncn2-c2ccc(F)cc21 (configuration not stated) , field pKi: 7.88

Record `CC(C)(C)OC(=O)c1ncn2c1CN(C(=O)N1CCNCC1)c1cc(Cl)ccc1-2` , field pKi: 8.40

Reference for the values: ChEMBL document CHEMBL1132620
